# system.tested: Chitinase (Onchocerca volvulus, UniProt Q25615)
# Sequence (Q25615 whole entry): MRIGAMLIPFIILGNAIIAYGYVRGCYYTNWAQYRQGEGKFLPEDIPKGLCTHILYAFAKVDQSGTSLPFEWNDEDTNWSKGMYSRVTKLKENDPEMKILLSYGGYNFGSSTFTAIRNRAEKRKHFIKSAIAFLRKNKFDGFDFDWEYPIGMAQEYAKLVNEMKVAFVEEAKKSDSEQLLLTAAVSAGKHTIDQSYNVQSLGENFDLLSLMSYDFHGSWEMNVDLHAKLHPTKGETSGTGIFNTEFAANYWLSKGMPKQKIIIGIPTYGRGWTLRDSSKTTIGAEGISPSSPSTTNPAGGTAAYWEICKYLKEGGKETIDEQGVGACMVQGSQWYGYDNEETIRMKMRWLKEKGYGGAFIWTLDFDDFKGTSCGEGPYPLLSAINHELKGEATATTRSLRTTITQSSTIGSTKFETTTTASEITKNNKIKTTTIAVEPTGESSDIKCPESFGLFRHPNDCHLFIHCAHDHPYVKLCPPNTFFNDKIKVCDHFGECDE
measured.attribute: Ki (nM)
Enter your answer as a number in nM; do not include the unit.

Task: Report measured Ki on Chitinase (Onchocerca volvulus, UniProt Q25615); entry: O=C(Nc1ccc(Oc2ccc(Cl)cc2)c(Cl)c1)c1cc(I)cc(I)c1O [RAFOXANIDE]
Output: 130

====

# system.tested: Chitinase (Onchocerca volvulus)
# Sequence (Q25615 whole entry): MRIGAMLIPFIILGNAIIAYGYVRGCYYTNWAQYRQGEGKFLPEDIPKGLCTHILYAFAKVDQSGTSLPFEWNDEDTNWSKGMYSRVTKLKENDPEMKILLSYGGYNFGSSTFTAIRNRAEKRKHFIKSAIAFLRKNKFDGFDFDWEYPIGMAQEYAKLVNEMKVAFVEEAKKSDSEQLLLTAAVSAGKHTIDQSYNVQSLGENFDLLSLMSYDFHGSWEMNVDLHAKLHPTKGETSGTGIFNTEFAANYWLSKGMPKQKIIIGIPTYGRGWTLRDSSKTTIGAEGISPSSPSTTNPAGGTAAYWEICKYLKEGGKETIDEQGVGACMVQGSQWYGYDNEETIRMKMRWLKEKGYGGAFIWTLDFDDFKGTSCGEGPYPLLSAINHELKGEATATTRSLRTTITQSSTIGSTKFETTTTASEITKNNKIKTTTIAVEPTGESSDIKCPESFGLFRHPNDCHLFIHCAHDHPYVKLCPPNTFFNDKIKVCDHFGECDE
# maps each entry to its pIC50
In simple prose, pIC50 is minus the logarithm base ten of a concentration in moles per litre.

Answered cases to consult:
[[record]]
smiles = "Cc1ccc(Oc2ccc(NC(=O)c3cc(I)cc(I)c3O)cc2)cc1"
system_tested = "Chitinase (Onchocerca volvulus)"
measured_attribute = "pIC50"
assay_value = 5.95

[[record]]
smiles = "O=C(Nc1ccc2ccccc2c1)c1cc(I)cc(I)c1O"
system_tested = "Chitinase (Onchocerca volvulus)"
measured_attribute = "pIC50"
assay_value = 6.03

[[record]]
smiles = "COc1c(I)cc(I)cc1C(=O)N(C)c1ccc(Oc2ccccc2)cc1"
system_tested = "Chitinase (Onchocerca volvulus)"
measured_attribute = "pIC50"
assay_value = 5.43

[[record]]
smiles = "O=C(Nc1ccc(-c2ccc(Cl)cc2)cc1)c1cc(I)cc(I)c1O"
system_tested = "Chitinase (Onchocerca volvulus)"
measured_attribute = "pIC50"
assay_value = 6.43

[[record]]
smiles = "O=C(Nc1ccc(Oc2ccc(Cl)cc2)cc1)c1cc(I)cc(I)c1O"
system_tested = "Chitinase (Onchocerca volvulus)"
measured_attribute = "pIC50"
assay_value = 6.15


Task: Determine its reported pIC50: O=C(Nc1ccc(Oc2ccccc2Cl)cc1)c1cc(I)cc(I)c1O
Output: 5.92

Source: ChEMBL document CHEMBL3297707
